- experimentalSystem: Jak2 (UniProt O60674)
- Sequence (O60674 whole entry, looked up): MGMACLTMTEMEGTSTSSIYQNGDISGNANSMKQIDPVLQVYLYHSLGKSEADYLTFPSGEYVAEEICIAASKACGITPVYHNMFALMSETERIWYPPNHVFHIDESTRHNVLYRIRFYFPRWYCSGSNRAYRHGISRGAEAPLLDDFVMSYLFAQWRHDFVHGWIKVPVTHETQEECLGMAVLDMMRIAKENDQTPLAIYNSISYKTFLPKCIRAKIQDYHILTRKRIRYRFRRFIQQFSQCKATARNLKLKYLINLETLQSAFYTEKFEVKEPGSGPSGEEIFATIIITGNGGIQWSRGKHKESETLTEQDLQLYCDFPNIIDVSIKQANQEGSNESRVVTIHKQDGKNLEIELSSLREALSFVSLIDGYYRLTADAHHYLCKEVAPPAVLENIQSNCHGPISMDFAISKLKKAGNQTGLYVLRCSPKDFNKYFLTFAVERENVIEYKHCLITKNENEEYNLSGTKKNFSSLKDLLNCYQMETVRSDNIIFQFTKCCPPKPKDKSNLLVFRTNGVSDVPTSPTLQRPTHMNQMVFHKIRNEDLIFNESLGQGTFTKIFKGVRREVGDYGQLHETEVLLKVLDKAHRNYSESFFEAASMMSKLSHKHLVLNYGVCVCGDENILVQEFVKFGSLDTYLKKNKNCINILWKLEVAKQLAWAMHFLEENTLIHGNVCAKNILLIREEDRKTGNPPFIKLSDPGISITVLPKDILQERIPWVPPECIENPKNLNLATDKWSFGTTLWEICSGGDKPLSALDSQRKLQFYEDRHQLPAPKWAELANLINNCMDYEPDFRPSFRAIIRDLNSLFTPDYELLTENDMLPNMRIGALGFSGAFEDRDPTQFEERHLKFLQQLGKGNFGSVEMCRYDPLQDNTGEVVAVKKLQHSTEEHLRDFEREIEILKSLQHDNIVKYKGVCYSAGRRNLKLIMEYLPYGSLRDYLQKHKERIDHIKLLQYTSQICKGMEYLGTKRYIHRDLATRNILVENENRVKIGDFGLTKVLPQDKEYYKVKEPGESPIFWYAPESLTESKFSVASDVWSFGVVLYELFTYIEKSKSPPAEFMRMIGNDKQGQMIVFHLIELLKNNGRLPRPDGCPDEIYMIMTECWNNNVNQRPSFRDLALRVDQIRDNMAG
- assayExplanation: phosphorylation enrichment, bacterial display (enrichment ratio); higher = better substrate or ligand; peptides without Tyr show the background;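 also: 11-residue human phosphosite peptides and single-mutation variants displayed on the E. coli surface, counted by deep sequencing, each peptide's frequency after selection divided by its frequency in the unselected input library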;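 also: frequency after pTyr selection over input frequency; kinase dosed for 20-30% of maximal phosphorylation in three min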
Could you please report measured phosphorylation enrichment for the items listed next?
One number for each entry.

Record excerpt, results attached:
itemSequence: QRRYLYYYSYL [PTEN_Y176_V175L]
experimentalSystem: Jak2 (UniProt O60674)
numericReadout: 4.97
//
itemSequence: ISPPVYLTNEW [NRK_Y885]
experimentalSystem: Jak2 (UniProt O60674)
numericReadout: 1.1
//
itemSequence: MKDLTYSSLCF [ALOX5_Y446_A447S]
experimentalSystem: Jak2 (UniProt O60674)
numericReadout: 1.21
//
itemSequence: KNRDVSSSDYF [USP24_Y2134_Y2134S]
experimentalSystem: Jak2 (UniProt O60674)
numericReadout: 0.578
//
itemSequence: CTTIHYNFVCN [TP53_Y234_M237V_YF]
experimentalSystem: Jak2 (UniProt O60674)
numericReadout: 1.01

Batch: phosphorylation enrichment for all items listed.
1. VRFMAYTDETC [F8_Y450_F455C]
2. TQNAVYSAANF [DDX5_Y535_G533A_YF]
3. LFHENYNAGTF [CFI_Y421_I416L_YF]
4. GYDHSYYFIAT [ESD_Y262]
5. GLRYGYGVLGG [KRTAP20-2_Y15]
6. QRVLLYVRRET [GRHL3_Y518]
7. HMEAVYIDIAD [PITPNA_Y140_V136M]

1: 1.05; 2: 0.526; 3: 1.07; 4: 6.79; 5: 0.586; 6: 0.9; 7: 2.26

Provide phosphorylation enrichment values for the following items, in order.
1. SLVGCYNLTFM [HS6ST3_Y323]
2. NWGSPYKSNGC [ZNF347_Y261]
3. SSPRRYTIAAL [TTR_Y125_G121S]

1: 1.39; 2: 0.759; 3: 0.356

* * *

- experimentalSystem: Hck (UniProt P08631)
- Sequence (P08631 whole entry, looked up): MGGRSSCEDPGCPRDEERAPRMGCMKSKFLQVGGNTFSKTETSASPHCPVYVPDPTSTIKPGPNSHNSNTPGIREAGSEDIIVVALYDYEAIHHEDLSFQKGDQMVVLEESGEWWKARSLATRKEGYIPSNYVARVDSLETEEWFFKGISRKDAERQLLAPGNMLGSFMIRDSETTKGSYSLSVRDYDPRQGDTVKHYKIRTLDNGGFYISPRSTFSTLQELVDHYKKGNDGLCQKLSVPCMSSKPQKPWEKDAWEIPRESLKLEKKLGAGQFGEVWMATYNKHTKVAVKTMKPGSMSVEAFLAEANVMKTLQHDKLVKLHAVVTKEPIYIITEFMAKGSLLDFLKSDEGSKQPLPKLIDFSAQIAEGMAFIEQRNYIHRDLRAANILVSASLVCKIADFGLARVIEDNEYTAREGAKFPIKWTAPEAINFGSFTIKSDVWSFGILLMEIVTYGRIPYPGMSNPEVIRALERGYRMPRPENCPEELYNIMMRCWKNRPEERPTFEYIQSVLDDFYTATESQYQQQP
- assayExplanation: phosphorylation enrichment, bacterial display (enrichment ratio); higher = better substrate or ligand; peptides without Tyr show the background
Label rule, in plain words: phosphorylation enrichment of 0.6 and up is met, under 0.6 is not met.

Examples with answers:
itemSequence: LGLDECLDKLK [FMNL2_Y352_Y352C]
answerLabel: met
//
itemSequence: YVKEPYIQSRF [HIPK4_Y175]
answerLabel: not met
//
itemSequence: FVPSFYHAFSG [ACTN4_Y265_S262P_YF]
answerLabel: met

Quick check: does ARGMEYLASKK [FGFR1_Y613] have phosphorylation enrichment greater than or equal to 0.6? not met

Is phosphorylation enrichment for QLAPQYTYAQG [FLNA_Y1761] at or above 0.6? met

Textbook exercise: given the entry YALAEYTEVKT [ALDH1A3_Y497] , state whether its phosphorylation enrichment is greater than or equal to 0.6. met

* * *

- experimentalSystem: Hck (UniProt P08631)
- assayExplanation: phosphorylation enrichment, bacterial display (enrichment ratio); higher = better substrate or ligand; peptides without Tyr show the background
valueType: phosphorylation enrichment
Give bare numbers.

Below are worked cases with known answers.
itemSequence: GESQGYDIMEP [MSH2_Y863]
phosphorylation enrichment: 0.487

itemSequence: PEADKYRLPYA [FGG_Y300_T303P]
phosphorylation enrichment: 0.598

itemSequence: DAGTDYVGISR [FREM2_Y2061]
phosphorylation enrichment: 0.545

State recorded phosphorylation enrichment for all listed sequences.
1. SHNELYYEAAE [VANGL1_Y344_E347A]
2. LLKAGYHGVLR [TTPA_Y100]
3. AKFPSYEKNKK [FOXL2_Y91_F90S]
4. NARGLYFKLHN [GATA2_Y376_C373R_YF]
5. NWGSPYKSNGC [ZNF347_Y261]
6. KTNVSYFGALD [CACNB4_Y103_C104F]
7. KRLYAYKMLMA [TMC2_Y209_Q205R]
8. LRYDSYSSYCN [SLC20A2_Y433]

1. 1.1
2. 0.453
3. 0.44
4. 0.53
5. 0.52
6. 0.484
7. 0.436
8. 0.949

* * *

- experimentalSystem: Fyn (UniProt P06241)
- Sequence (P06241 whole entry, looked up): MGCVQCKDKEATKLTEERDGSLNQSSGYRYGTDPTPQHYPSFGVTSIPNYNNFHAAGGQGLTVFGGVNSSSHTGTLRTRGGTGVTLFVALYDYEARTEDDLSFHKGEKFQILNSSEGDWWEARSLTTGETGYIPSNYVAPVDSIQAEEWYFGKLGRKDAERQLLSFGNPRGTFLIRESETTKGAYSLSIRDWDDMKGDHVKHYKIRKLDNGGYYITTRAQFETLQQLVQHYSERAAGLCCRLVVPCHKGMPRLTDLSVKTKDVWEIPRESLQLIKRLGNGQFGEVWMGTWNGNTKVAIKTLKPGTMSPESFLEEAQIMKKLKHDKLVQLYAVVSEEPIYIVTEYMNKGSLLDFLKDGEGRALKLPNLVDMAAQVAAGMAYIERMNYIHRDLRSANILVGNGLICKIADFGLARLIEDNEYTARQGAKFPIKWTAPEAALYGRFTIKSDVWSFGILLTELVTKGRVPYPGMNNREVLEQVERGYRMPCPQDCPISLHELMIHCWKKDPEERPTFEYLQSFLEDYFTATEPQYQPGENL
- assayExplanation: phosphorylation enrichment, bacterial display (enrichment ratio); higher = better substrate or ligand; peptides without Tyr show the background
valueType: phosphorylation enrichment
Give bare numbers.

itemSequence: ALMGLYHGQVL [HADHA_Y343]
phosphorylation enrichment: 0.728

itemSequence: YIPFRYPKEFQ [IDS_Y234_H229Y]
phosphorylation enrichment: 0.644

itemSequence: GVYSRHFTTYD [CLCA1_Y661_Y661H]
phosphorylation enrichment: 0.648

itemSequence: SSFSRYIMMPN [LEF1_Y114_G113R_YF]
phosphorylation enrichment: 0.509

itemSequence: ADGLEYSRTEL [MMUT_Y287_G291E]
phosphorylation enrichment: 0.527

itemSequence: HHIDYYKETTN [FGFR1_Y654_K656E]
phosphorylation enrichment: 0.646

itemSequence: TKDTFYKQPVF [GBA_Y451_M455V]
phosphorylation enrichment: 0.386

itemSequence: KGELRYMHSPV [ABCD1_Y281_R285P]
phosphorylation enrichment: 0.328

Return reported phosphorylation enrichment values for all items listed beneath this line.
1. NIISFYLSRDP [CTSD_Y232_F229I]
2. LAGRYYALKSM [CKB_Y174]
3. AKLVQYFMEHH [PTPN11_Y80_E76K_YF]
4. GSIQQYTFKQE [PRG4_Y1271_I1272T_YF]
5. MENFIYESMRY [CYP19A1_Y361]
6. RRVLVYGDRGA [QDPR_Y16_G18D]

1: 0.446; 2: 0.668; 3: 0.374; 4: 0.345; 5: 8.43; 6: 0.542

* * *

- experimentalSystem: FGFR3 (UniProt P22607)
- Sequence (P22607 whole entry, looked up): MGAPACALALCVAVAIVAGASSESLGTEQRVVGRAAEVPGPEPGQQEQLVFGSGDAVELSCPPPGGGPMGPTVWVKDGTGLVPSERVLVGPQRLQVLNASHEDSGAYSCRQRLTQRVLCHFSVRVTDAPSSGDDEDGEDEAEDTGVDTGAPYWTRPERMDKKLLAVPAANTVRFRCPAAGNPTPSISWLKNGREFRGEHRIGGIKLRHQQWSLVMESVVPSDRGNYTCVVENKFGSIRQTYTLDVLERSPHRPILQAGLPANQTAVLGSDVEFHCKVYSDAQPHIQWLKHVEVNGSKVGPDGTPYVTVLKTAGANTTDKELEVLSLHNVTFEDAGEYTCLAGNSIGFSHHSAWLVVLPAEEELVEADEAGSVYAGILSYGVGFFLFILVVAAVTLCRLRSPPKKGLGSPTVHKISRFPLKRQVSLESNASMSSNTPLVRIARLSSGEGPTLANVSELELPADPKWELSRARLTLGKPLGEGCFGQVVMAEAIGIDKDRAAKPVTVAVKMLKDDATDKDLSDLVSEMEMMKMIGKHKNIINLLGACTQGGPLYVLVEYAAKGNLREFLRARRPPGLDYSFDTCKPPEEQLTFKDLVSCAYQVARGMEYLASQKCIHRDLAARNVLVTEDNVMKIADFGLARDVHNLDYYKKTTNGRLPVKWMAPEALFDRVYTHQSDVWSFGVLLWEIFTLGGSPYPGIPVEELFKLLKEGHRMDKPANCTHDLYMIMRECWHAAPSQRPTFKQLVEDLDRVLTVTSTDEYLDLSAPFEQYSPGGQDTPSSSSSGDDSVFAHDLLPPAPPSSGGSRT
- assayExplanation: phosphorylation enrichment, bacterial display (enrichment ratio); higher = better substrate or ligand; peptides without Tyr show the background
Categories are assigned from the measured phosphorylation enrichment using these intervals: range 1 = under 0.6, range 2 = from 0.6 up to 0.8, range 3 = 0.8 and over

Worked cases, answers included:
itemSequence: HGEAYYSEVKP [PAK5_Y182]
answerLabel: range 3

itemSequence: TYGQVYKGPHV [TNIK_Y40_R43P]
answerLabel: range 1

itemSequence: NGLVAYKDGKL [PMM2_Y76]
answerLabel: range 1

itemSequence: QEGPEYWDEET [HLA-A_Y83_Q86E]
answerLabel: range 3

itemSequence: ETCLAYREKRI [TEKT1_Y118]
answerLabel: range 1

itemSequence: LGRKLYSIAAP [ABHD12_Y345]
answerLabel: range 3

Which class does RALLNYIASKF [GSTA3_Y74_I71L_YF] fall in? range 2

Using the reported phosphorylation enrichment, which band applies to ALECLYHREKR [TEKT5_Y195] ? range 2

Determine which band this sequence sits in: RRNEEYCLLDS [ITK_Y198] range 3

Into which bin does this sequence go? KLMTEYKKRKQ [ARFGEF3_Y2029] range 1

Assign a category based on measured phosphorylation enrichment for RRYVYYYSYLL [PTEN_Y177] and give only the class name. range 3

* * *

- System: c-Abl (mouse)
- assayExplanation: phosphorylation enrichment, bacterial display (enrichment ratio); higher = better substrate or ligand; peptides without Tyr show the background
valueType: phosphorylation enrichment
Answers are plain numbers.

itemSequence: RFLRGYHQDAY [HLA-A_Y137_R138H]
phosphorylation enrichment: 0.984
//
itemSequence: WVFNHYRWIIW [BRCA2_Y2624_YF]
phosphorylation enrichment: 0.862
//
itemSequence: ISRASYFRKGG [ALK_Y1282_Y1278S_YF]
phosphorylation enrichment: 0.597
//
itemSequence: GYDHSYYFIAT [ESD_Y262]
phosphorylation enrichment: 0.759
//
itemSequence: STEEQYRICQV [EFHC1_Y115_R118C]
phosphorylation enrichment: 0.999
//
itemSequence: QWQQLYDTLNA [EIF3M_Y351]
phosphorylation enrichment: 0.546
//
itemSequence: KNRDVSSSDYF [USP24_Y2134_Y2134S]
phosphorylation enrichment: 0.61
//
itemSequence: GLTSTYVGIRK [ROBO1_Y932_A933V]
phosphorylation enrichment: 0.565

Answer for every listed entry: what is its phosphorylation enrichment? The entries follow.
1. AHPIIYDIIEA [PYKtide_D_2014]
2. YPPDGYSRHYE [CTNND1_Y213]
3. NNKKDYFDMFE [SLC26A3_Y526_K521N_YF]

[5.89, 0.355, 0.723]

# per-item lookup of phosphorylation enrichment; items listed below
1. YSIDYYRVGGH [NTRK2_Y707_T704I]
2. NFRNTYVNANE [KCNH2_Y475_T473N]
3. QRVLLYVRRET [GRHL3_Y518]
4. KRLYAYKMLMA [TMC2_Y209_Q205R]
5. AKIDGYIISYR
6. GSERRYTREGG [PTPRN2_Y139_S140T]
7. KEAQVYQAFRL [SUCLG2_Y343_K347R]

1: 0.494; 2: 0.467; 3: 0.41; 4: 0.684; 5: 0.755; 6: 0.489; 7: 19.6

Give phosphorylation enrichment for all sequences that follow.
1. PPNSPYIGSSP [KCNT1_Y740]
2. SYKNKYGMVAQ [APOB_Y276]

0.572
0.562
